Reference source: patent US11453711B2

assay: PK study in non-human primates, single sc dose 5 nmol/kg, plasma ELISA; details: monkey, single sc dose 5 nmol/kg
Endpoint: Tmax
// return the numeric value with its unit appended

Q) Output measured Tmax for this item: MLC047: fusion polypeptide SEQ ID NO: 330 conjugated with Moiety A at 40K of linker (conjugate) HGEGTFTSDVSSYLEEQAAREFIAWLVRGGGGQEPGAQPGQEPGAQPGQEPGAQPGQEPGAQPGQEPGAQKGQEPGAQPGAQPGAQPGAQPGAQPGAQPGAQPGAQPGAQPARQGDHCPLGPGRCCRLHTVRASLEDLGWADWVLSPREVQVTMCIGACPSQFRAANLHAQIKTSLHRLRPDTVPAPCCVPASYNPMVLIQRTDTGVSLQTYDDLLARDCHCI
A) 16 h
